Test system: CXCR3 (Macaca fascicularis)
Protocol: functional cellular assay measuring calcium flux in CXCR3 transfected cells (block of CXCR3/IP-10 interaction)
Type: cell-based
Reported conditions: IP-10 induced intracellular calcium flux; Cyno-CHO cells stably expressing recombinant CXCR3 and G-alpha-16
Assay readout: pIC50
Scale: negative log10 of molar concentration, which is what pIC50 denotes.

// solved cases for pIC50 follow
>  <Compound>
Cc1cc(C)n(CC(=O)N2CCN(c3ccccc3C(=O)Nc3ccnc(N4CCN(C)CC4)c3)CC2)n1

>  <pIC50>
7.85

$$$$
>  <Compound>
Cc1cc(C)n(CC(=O)N2CCN(c3ccccc3C(=O)Nc3nccs3)CC2)n1

>  <pIC50>
7.89

$$$$
>  <Compound>
Cc1cc(C)n(CC(=O)N2CCN(c3ccccc3C(=O)Nc3cnc4c(c3)c(C)nn4C)CC2)n1

>  <pIC50>
8.06

$$$$
>  <Compound>
Cc1cc(C)n(CC(=O)N2CCN(c3ccccc3C(=O)Nc3ccc(Oc4ccccc4)nc3)CC2)n1

>  <pIC50>
8.00

$$$$

Which pIC50 is reported for this molecule? Cc1cc(C)n(CC(=O)N2CCN(c3ccccc3C(=O)Nc3cnc(C)c(F)c3)CC2)n1 7.85

Which pIC50 is reported for this molecule? Cc1cc(C)n(CC(=O)N2CCN(c3ccccc3NC(=O)c3cccc(C(F)(F)F)c3)CC2)n1 8.13

Which pIC50 is reported for this molecule? Cc1cc(C)n(CC(=O)N2CCN(c3ccccc3C(=O)Nc3nc4ccccc4s3)CC2)n1 8.23

Which pIC50 is reported for this molecule? O=C(Nc1ccncc1)c1ccccc1N1CCN(C(=O)Cc2n[nH]c3ccccc23)CC1 8.14

Which pIC50 is reported for this molecule? COc1ccc(NC(=O)c2ccccc2N2CCN(C(=O)Cn3nc(C)cc3C)CC2)cn1 8.23

###

Each record here notes measured IC50.
Test system: CXCR3 (Macaca fascicularis, UniProt A0A2K5UV19)
Sequence (A0A2K5UV19 entry or part of it): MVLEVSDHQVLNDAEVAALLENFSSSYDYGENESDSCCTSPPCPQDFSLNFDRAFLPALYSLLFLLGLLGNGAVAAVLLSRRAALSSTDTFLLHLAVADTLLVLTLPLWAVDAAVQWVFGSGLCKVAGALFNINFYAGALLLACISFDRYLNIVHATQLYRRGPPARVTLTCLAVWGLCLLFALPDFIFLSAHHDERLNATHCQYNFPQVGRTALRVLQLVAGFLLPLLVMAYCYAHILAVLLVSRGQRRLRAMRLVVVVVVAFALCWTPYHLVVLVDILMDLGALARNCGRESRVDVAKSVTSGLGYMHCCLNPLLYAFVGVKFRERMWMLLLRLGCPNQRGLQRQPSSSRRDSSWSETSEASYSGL
Protocol: functional cellular assay measuring calcium flux in CXCR3 transfected cells (block of CXCR3/IP-10 interaction)
Reported conditions: IP-10 induced intracellular calcium flux; Cyno-CHO cells stably expressing recombinant CXCR3 and G-alpha-16
Please respond with the number in nM and leave the unit unwritten.

>  <Compound>
COc1cccc(C(=O)NCC(=O)N2CCN(c3ccccc3C(=O)Nc3ccncc3)CC2)c1OC

>  <IC50 / nM>
3.7

$$$$
>  <Compound>
O=C(Nc1ccccc1)c1ccccc1N1CCN(C(=O)Cn2ccc3cccnc32)CC1

>  <IC50 / nM>
3.4

$$$$
>  <Compound>
COc1ccc(NC(=O)c2ccccc2N2CCN(C(=O)Cn3ccc4cccnc43)CC2)cn1

>  <IC50 / nM>
5.7

$$$$
>  <Compound>
Cc1cc(C)n(CC(=O)N2CCN(c3ccccc3C(=O)Nc3ccc4nc(C)sc4c3)CC2)n1

>  <IC50 / nM>
13

$$$$

Which IC50 is reported for this molecule? CS(=O)(=O)c1ccc(NC(=O)c2ccccc2N2CCN(C(=O)Cn3ccc4cccnc43)CC2)cc1 7.4

Which IC50 is reported for this molecule? Cc1cc(C)n(CC(=O)N2CCN(c3ccccc3C(=O)Nc3cc(C4CCCCC4)no3)CC2)n1 8.3

Which IC50 is reported for this molecule? O=C(Nc1ccncc1)c1ccccc1N1CCN(C(=O)CN2C(=O)c3ccccc3C2=O)CC1 6.1

Which IC50 is reported for this molecule? Cn1cccc1C(=O)NCC(=O)N1CCN(c2ccccc2C(=O)Nc2ccncc2)CC1 4.2

Which IC50 is reported for this molecule? COc1ccc(C(=O)NCC(=O)N2CCN(c3ccccc3C(=O)Nc3cccnc3)CC2)cc1C 11

###

Test system: CXCR3 (Macaca fascicularis, UniProt A0A2K5UV19)
Protocol: functional cellular assay measuring calcium flux in CXCR3 transfected cells (block of CXCR3/IP-10 interaction)
Reported conditions: IP-10 induced intracellular calcium flux; Cyno-CHO cells stably expressing recombinant CXCR3 and G-alpha-16
Method: Compounds are assessed for the ability to block the interaction of CXCR3 and IP-10 in a functional cellular assay measuring calcium flux in CXCR3 transfected cells. […] Test compounds are dissolved in DMSO and diluted to 1.045 mM in DMSO. […] Intracellular calcium flux is recorded on the HAMAMTSU FDSS6000, using excitation at 480 nm and emission at 540 nm. Data are analyzed using Activity Base software. […]
Assay readout: IC50 (nM)
Please respond with the number in nM and leave the unit unwritten.

// solved cases for IC50 follow
>  <Compound>
COc1cc(NC(=O)c2ccccc2N2CCN(C(=O)Cn3nc(C)cc3C)[C@@H](C)C2)ccn1

>  <Unit>
nM

>  <IC50>
21

$$$$
>  <Compound>
O=C(Nc1cncc(F)c1)c1ccccc1N1CCN(C(=O)Cn2ccc3ccncc32)CC1

>  <Unit>
nM

>  <IC50>
1.3

$$$$
>  <Compound>
Cc1cc(C)n(CC(=O)N2CCN(c3ccccc3NC(=O)c3ccc(Cl)cc3)CC2)n1

>  <Unit>
nM

>  <IC50>
4.7

$$$$
>  <Compound>
Cc1nn(CC(=O)N2CCN(c3ncc(Cl)cc3NC(=O)c3cccc(C(F)(F)F)c3)CC2)c(C)c1Cl

>  <Unit>
nM

>  <IC50>
7.2

$$$$
>  <Compound>
COc1ccc(C(=O)NCC(=O)N2CCN(c3ccccc3C(=O)Nc3ccncc3)CC2)cc1OC

>  <Unit>
nM

>  <IC50>
4.6

$$$$

Which IC50 is reported for this compound? Cc1cc(C)n(CC(=O)N2CCN(c3ccccc3C(=O)Nc3ccnnc3)CC2)n1 17

Which IC50 is reported for this compound? Cc1cc(C)n(CC(=O)N2CCC(c3ccc(Cl)cc3NC(=O)c3ccccc3)CC2)n1 18.5

Which IC50 is reported for this compound? O=C(Nc1ccncc1)c1ccccc1N1CCN(C(=O)CN2CCCCC2=O)CC1 7.4

Which IC50 is reported for this compound? CN1CCc2nc(NC(=O)c3ccccc3N3CCN(C(=O)CN4Cc5ccccc5C4=O)CC3)sc2C1 2.9

Which IC50 is reported for this compound? Cc1cc(C)n(CC(=O)N2CCN(c3ccccc3C(=O)Nc3ccc(C#N)nc3)CC2)n1 4.2

Which IC50 is reported for this compound? Cc1cc(C)n(CC(=O)N2CCN(c3ccccc3C(=O)Nc3cc(C(C)(C)C)n[nH]3)CC2)n1 4.8

Which IC50 is reported for this compound? O=C(Nc1ccncc1)c1ccccc1N1CCN(C(=O)CN2C(=O)c3ccccc3S2(=O)=O)CC1 6.6

Which IC50 is reported for this compound? Cc1cc(C)n(CC(=O)N2CCN(c3ccccc3C(=O)Nc3nc(-c4ccncc4)cs3)CC2)n1 13.5

Which IC50 is reported for this compound? Cc1cc(C)n(CC(=O)N2CCN(c3ccccc3C(=O)Nc3nc(C(C)(C)C)c(C#N)s3)CC2)n1 18.5

###

Test system: UniProtKB A0A2K5UV19
Protocol: functional cellular assay measuring calcium flux in CXCR3 transfected cells (block of CXCR3/IP-10 interaction)
Reported conditions: IP-10 induced intracellular calcium flux; Cyno-CHO cells stably expressing recombinant CXCR3 and G-alpha-16
Assay readout: pIC50
Scale: negative log10 of molar concentration, which is what pIC50 denotes.

// solved cases for pIC50 follow
>  <Compound>
Cc1cc(C)n(CC(=O)N2CCN(c3ccccc3C(=O)Nc3cccc(OC(F)(F)F)c3)CC2)n1

>  <pIC50>
8.51

$$$$
>  <Compound>
Cc1cc(C)n(CC(=O)N2CCN(c3ccccc3C(=O)Nc3cccnc3)CC2)n1

>  <pIC50>
8.18

$$$$
>  <Compound>
Cc1cc(C)n(CC(=O)N2CCN(c3ccccc3NC(=O)c3ccc(Oc4ccccc4)nc3)CC2)n1

>  <pIC50>
8.04

$$$$
>  <Compound>
Cc1nc(C)c(C(=O)NCC(=O)N2CCN(c3ccccc3C(=O)Nc3cccnc3)CC2)s1

>  <pIC50>
7.86

$$$$
>  <Compound>
Cc1cc(C)n(CC(=O)N2CCN(c3ccccc3C(=O)Nc3ccc4oc(C)nc4c3)CC2)n1

>  <pIC50>
7.76

$$$$

Which pIC50 is reported for this compound? Cc1cc(C)n(CC(=O)N2CCN(c3ccccc3NC(=O)c3cccc(Cl)c3)CC2)n1 8.38

Which pIC50 is reported for this compound? Cc1cc(C)n(CC(=O)N2CCN(c3ccccc3C(=O)Nc3cc(C(F)(F)F)no3)CC2)n1 8.29

Which pIC50 is reported for this compound? Cc1cc(C)n(CC(=O)N2CCN(c3ccccc3C(=O)Nc3cccc(Cl)c3)CC2)n1 8.48

Which pIC50 is reported for this compound? O=C(Nc1cc(Cl)cnc1N1CCN(C(=O)Cn2ccc3cccnc32)CC1)c1cccc(C(F)(F)F)c1 8.05

Which pIC50 is reported for this compound? Cc1cc(C)n(CC(=O)N2CCN(c3ccccc3C(=O)Nc3cccc(S(=O)(=O)N(C)C)c3)CC2)n1 7.77

Which pIC50 is reported for this compound? Cc1nc2ccccc2c(=O)n1CC(=O)N1CCN(c2ccccc2C(=O)Nc2ccncc2)CC1 8.07

Which pIC50 is reported for this compound? Cc1cc(C)n(CC(=O)N2CCN(c3ccccc3C(=O)Nc3cncc(O)c3)CC2)n1 7.90

Which pIC50 is reported for this compound? Cc1cc(C)n(CC(=O)N2CCN(c3ccccc3C(=O)Nc3nc4c(s3)CN(C)CC4)CC2)n1 8.01

Which pIC50 is reported for this compound? Cc1cc(NC(=O)c2ccccc2N2CCN(C(=O)Cn3nc(C)cc3C)CC2)ccn1 7.90

Which pIC50 is reported for this compound? Cc1cc(C)n(CC(=O)N2CCN(c3ccccc3NC(=O)c3cncc(Br)c3)CC2)n1 8.24

Which pIC50 is reported for this compound? Cc1cc(C)n(CC(=O)N2CCN(c3ccc(Cl)cc3C(=O)Nc3nc4c(s3)CN(C)CC4)CC2)n1 7.82
